run.description: BSK_SAg_Proliferation: Cell Proliferation Assessment in the BioMAP Diversity Plus: SAg Assay (AID 2283095);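 further: relative cell number as total protein by SRB absorbance in sub-confluent culture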
study.conditions: primary human HUVEC with PBMC
Calls of active or inactive are those of the source. How the source made its calls: active means hit-call score of the fitted dose curve at least 0.9, where 1 is the maximum; inactive means score below 0.9.
Return exactly one item of active, inactive

Would you please look over these solved cases?
>>> class_label("CC(C)CCCC(C)(C)O")
"inactive"
>>> class_label("O=S(=O)(O)C(F)(F)C(F)(F)OC(F)(F)C(F)(F)F")
"inactive"
>>> class_label("CC(=O)c1ccc(C)cc1")
"inactive"

Prompt: Recorded call for `CCCCOCCOCCO` ?
Completion: inactive

Prompt: Recorded call for `c1ccc(Sc2ccccc2)cc1` ?
Completion: active

Prompt: Recorded call for `CCCCCCCCCCCCS` ?
Completion: active

Prompt: Recorded call for `OCCN1CCOCC1` ?
Completion: inactive

Prompt: Recorded call for CCCCCCCC1CCCC1=O (configuration not stated) ?
Completion: inactive

Prompt: Recorded call for `CCCCCCCCCC(=O)OCC` ?
Completion: active
